Molecular target: His-tagged KRAS G12D protein (Homo sapiens (Human), UniProt P01116, G12D)
Sequence (P01116 other isoform, or with tags, fused parts or gaps G12D): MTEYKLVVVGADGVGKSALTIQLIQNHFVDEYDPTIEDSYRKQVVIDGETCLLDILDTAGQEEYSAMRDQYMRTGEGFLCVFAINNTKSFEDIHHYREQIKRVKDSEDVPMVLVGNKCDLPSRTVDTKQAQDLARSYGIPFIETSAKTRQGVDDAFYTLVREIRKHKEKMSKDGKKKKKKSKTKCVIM
Experiment: KRAS G12D TR-FRET Assay
Format: binding
Settings: read-out: KRAS G12D Binding IC50
measurement.kind: IC50 (nM)

Fc1c2ncc3c(nc(OC[C@@]45CCCN4C[C@H](F)C5)nc13)N1CCOC[C@H](COCCCCc3c(Cl)cc4[nH]ncc4c3-2)C1 (single isomer, unassigned)    7

[P] O=C1CCCCc2c(Cl)cc3[nH]ncc3c2-c2ncc3c(nc(OC[C@@]45CCCN4C[C@H](F)C5)nc3c2F)N2CC3CCN1C(C3)C2 (stereo partly drawn)
[Q] Fc1c2ncc3c(nc(OC[C@@]45CCCN4C[C@H](F)C5)nc13)N1CCC[C@H](C1)Cn1ncc(n1)/C=C\c1c(Cl)cc3[nH]ncc3c1-2
# input // which entry has the larger IC50 value, P or Q ? When you have decided, please share the label of that item.
# output P
(P: 16 nM, Q: 6 nM)
